# System: SR
# assay explanation: NCI tumour cell line growth inhibition, 48 h
Active and inactive are the calls of the source. Cut-off read from the data, not from the text of the source: active = GI50 up to about 1.1 µM and inactive = higher.
Would you mind telling me the reported GI50 of each entry?

May I ask what GI50 has been recorded for CS(=O)(=O)OCCN(CCOS(C)(=O)=O)c1ccc(/C=N/c2ccc(-c3csc(Cc4ccccc4)n3)cc2)c(Cl)c1 ?
23.7 µM (inactive)

Also need CN(C)c1cccc2c(S(=O)(=O)NCCN)cccc12 , thanks.
> 100 µM (inactive)

Also need CC(=O)NS(=O)(=O)c1ccc(NC(=O)c2c3ccccc3nc3ccccc23)cc1 , thanks.
> 100 µM (inactive)

Also need O=[N+]([O-])C(/C=C(\Cl)[N+](=O)[O-])=C1Nc2ccccc2N1 , thanks.
29.6 µM (inactive)

Also need O=C(COc1ccc(Cl)c(Cl)c1)Nc1ccc[n+](Cc2ccc(S(=O)(=O)F)c(Cl)c2)c1 , thanks.
40.6 µM (inactive)

Also need CC(=O)Oc1ccc2c(c1)C(=O)c1nc(C)c(C)nc1C2=O , thanks.
29.6 µM (inactive)

Also need COC(=O)[C@]12CSCN1C(=O)C(C(C)=O)=NN2C(=O)[C@](OC)(c1ccccc1)C(F)(F)F , thanks.
> 10 µM (inactive)

Also need CCCCCC(C)(C)CCC(=O)OC1OC(COC2OC(COC3OC(CO)C(O)C(O)C3O)C(O)C(O)C2O)C(O)C(O)C1O (stereo unspecified) , thanks.
> 100 µM (inactive)

Also need COc1ccc(C(C)c2cc3c(cc2O)OCO3)cc1 (stereo unspecified) , thanks.
2.74 µM (inactive)

Also need N#Cc1ccc(/N=C(/NCC(=O)O)Nc2ccc3ccccc3c2)cc1 , thanks.
> 10 µM (inactive)

Also need CN(C)c1ccc(/C=N/C23CC4CC(CC(C4)C2)C3)cc1 , thanks.
> 100 µM (inactive)

Also need CN(C)/N=N/c1nc2c(c(=O)n(C)c(=O)n2C)n1C , thanks.
4.04 µM (inactive)

Also need Cc1ccc(N2C(=O)/C(=C/c3ccc(N(CCC#N)CCC#N)cc3C)N=C2c2cc([N+](=O)[O-])ccc2Cl)cc1 , thanks.
58.2 µM (inactive)

Also need CN(C)CCn1cnc2ncccc2c1=O , thanks.
> 100 µM (inactive)

Also need COc1ccc2nc3c(c(NCCCN(C)C)c2c1)CCCC3 , thanks.
2.42 µM (inactive)

Also need COCOC1/C=C/CCCC#C[C@H](C)C(=O)CC1 (stereo partly specified) , thanks.
3.46 µM (inactive)

Also need C[C@@H]1C(=O)CC2C(C)(C)CCC[C@]2(C)[C@@]12CC[C@]1(C=COC1)O2 (stereo partly specified) , thanks.
22 µM (inactive)

Also need CC(c1ccc2c(c1)CCC1C2CC2OC23CC=CC(=O)[C@]13C)C1C[C@]2(C)O[C@]2(C)[C@H](O)O1 (stereo partly specified) , thanks.
13.1 µM (inactive)

Also need Cc1ccc2c(c1)C(=O)c1nc(C)ccc1C2=O , thanks.
47.1 µM (inactive)

Also need CC(C(=O)N1c2ccccc2Sc2ccccc21)N1c2ccccc2Sc2ccccc21 (stereo unspecified) , thanks.
> 100 µM (inactive)

Also need S=C1CNC(=S)CN1 , thanks.
> 100 µM (inactive)

----------
# System: HCT-15
# assay explanation: NCI tumour cell line growth inhibition, 48 h
Would you mind telling me the reported GI50 of each entry?
Expressed in µM, but write only the number.

May I ask what GI50 has been recorded for COc1cccc2c1/c(=C/c1ccc(N(C)C)cc1)c1cc(-c3ccccc3)[n+](C)n12 ?
0.471

Also need COC(=O)c1c(O)ccc2c1c1c(n2Cc2ccccc2)C(=O)c2ccccc2C1 , thanks.
35.1

Also need Cc1c(CN2CCN(C)CC2)c(CN2CCN(C)CC2)c(C)n1-c1ccc(Cl)cc1 , thanks.
47
